test: in vivo; details: male, Balb/c nude, mouse, ip, 15 mg/kg
measurement-kind: AUC(0-t) (µg·h/mL)
// return numeric value only (unit: µg·h/mL, not printed)

Name the reported AUC(0-t) value associated with the compound "COC(=O)[C@H]1Cc2c([nH]c3ccccc23)[C@H](c2ccc(C(=O)OC(C)(C)C)cc2)N1C(=O)CCl"
0.123

====

experiment: PK profile, IV plasma concentration and PK parameters; assay type: in vivo; settings: Balb/C nude, mouse, iv, 5 mg/kg, 30% Kolliphore EL with 1% poloxamar 407 in water, time points considered 2-8 h
measurement-kind: half-life (h)
Field: numeric (h). Do not append units.

Name the reported half-life value associated with the molecule "CCCC[C@H]1Cc2c([nH]c3ccccc23)[C@H](c2ccc(NC34CC5CC(CC(C5)C3)C4)cc2)N1C(=O)CCl"
2.12
